Tested on: MS2 coat protein
EXPERIMENT NOTES: apparent KD of MS2 coat protein; designed switch direction (-1 OFF switch, 1 ON switch): -1; higher = weaker reporter binding
TEST SETTINGS: input ligand: FMN 200 uM
Classification field: enter Satisfied for apparent KD of MS2 coat protein values not below 30 nM, Not satisfied for values below it.

As a guide, the following entries are already answered.
GUCAUCACACAUGGGAUCAACAUGAGGAUCACCCAUGUUGCCAAGUUGUUUGCACGUCUUAUCAUACGUUUUUCGAU [Mod-Jxi] (Eterna round: R97, puzzle: Sensor, turn-off variant 1) : Not satisfied
UGUUGUUACGCAGGAUAUGAGGAUCACCCAUAUUAGGAUAUCGAAAGAGAAUUUCUGAGGAUCACCCAGAAGGGCGGGUUAACA [pwkr exNG2 2xF5 2xFMN.36] (Eterna round: R96, puzzle: Exclusion NG 2) : Satisfied
UGUAACCUGGUAAGGAUAUAGUUGCAAGGAGUCAACUAGAAGGUACAUGAGGAUCACCCAUGUCUACGGAUAUC [Eternabot (L2) Solution 91] (Eterna round: R97, puzzle: Brourd's mod of Exclusion 4) : Not satisfied
UGAGCAUGAGGAUAUACAAGGCGACCGUGAGGUCGAGGGUUACAUGAGGAUCACCCAUGUAGAAGGCAUGUUCU [jl-ex2-4.10] (Eterna round: R97, puzzle: Exclusion 2) : Satisfied
UGAGUACUGCGAGGAUAUACAUGAGGAUCACCCAUGUAAUAGUGUGAGGCUUUGCCUCACACAAUGUAGAAGGCGCAGUACUCU [Mat - Exclusion NG 2 - Mod of JL - D5] (Eterna round: R96, puzzle: Exclusion NG 2) : Not satisfied
AGUGGCCGAGGAUAUACAUGAGGAUCACCCAUGUUUUAUGUUGAAACGUUAGCGGCCUGUAGAAGGCGGACCUU [Eternabot (L2) Solution 76] (Eterna round: R97, puzzle: Exclusion 3) : Not satisfied

Request: Decide: apparent KD of MS2 coat protein of ACAUGAGGAUCACCCAUGUGACCACGAUGGCUGAUGUAGAGAUAGGAUAUGUGUGAAUAUCUAUCACAGAAGGAUCUUGACUGG [Deportation 53 - Jieux - Exclusion NG 3] (Eterna round: R96, puzzle: Exclusion NG 3) >= 30 nM?
Response: Not satisfied

Request: Decide: apparent KD of MS2 coat protein of GGUAUACAUGAGGAUCACCCAUGUCAGGAUAUGGUAUCCUGUGCCGAAAGGCACAGGUCCAGAAGGGACGAUAG [AK-MS2ROC-r4-exclusion1-5.2] (Eterna round: R97, puzzle: Exclusion 1) >= 30 nM?
Response: Satisfied

Request: Decide: apparent KD of MS2 coat protein of AAGGGUACUUUCGGAACGACAUGAGGAUCACCCAUGUAUACUGAGGAUAUCCACUACUAAGGACGGGAGAAGGCAGUGUAAUGU [Ex NG3 #78] (Eterna round: R96, puzzle: Exclusion NG 3) >= 30 nM?
Response: Not satisfied

---

apparent KD of MS2 coat protein values, listed per item
Tested on: MS2 coat protein
EXPERIMENT NOTES: apparent KD of MS2 coat protein; designed switch direction (-1 OFF switch, 1 ON switch): -1; higher = weaker reporter binding
TEST SETTINGS: Eterna round: R95; input ligand: microRNA oligo, concentration not stated
Give your result in nM as a bare value.

CUCAUGUGAGGAUAUAGUGCGUCUUCUAUUAUUAUUGAGUACUAGAAGGCACAUGAGGAUCACCCAUGUAGCAC [Ex4 - 3 - 45] (puzzle: Exclusion 4) : 41.9
AGUACUAACACGAAAGUGUUAGUACAAUAAGCUUGUGCAACAUGAGGAUCACCCAUGUCCUCAUAAGCUCGUCUUAU [salish99_TOv2_r3_044] (puzzle: Sensor v3, turn-off variant 2) : 75.2
CAAUGUACCUAGGAUAUAACCUACGACAUUGGGUUAGAAGGAGGAACAUGAGGAUCACCCAUGUGACUUCGCAA [Abiisbe] (puzzle: Exclusion 6) : 9.5
GGGAAACAUGAGGAUCACCCAUGUGAGGAUAUGAAAAAGAAAAGAAAAGAAAGAAGAAUCAGAAGGCACAAAGG [salish99-ex1_r3_079] (puzzle: Exclusion 1) : 36.1
GAGGCAUGCCGAGGUCCACACAUGAGGAUCACCCAUGUCAUGACAGGCUUUUUACUCGUUUUAUCGCUAUCGCGUUC [Vebizaledi] (puzzle: Sensor v3, turn-off variant 1) : 159

Request: Give the reported apparent KD of MS2 coat protein for this sequence. GGUUGACAUGAGGAUCACCCAUGUGAGGAUAUCGGCUGGUACGUGUUGGCUGGCAUCUCGAGAAGGCACAUAGG [Exclusion 1 V59] (puzzle: Exclusion 1)
Response: 155

Request: Give the reported apparent KD of MS2 coat protein for this sequence. GAUUAGUGAGGAUAUGGUAAAGAUAAGAUGAUGAAAGAACUCCAGAAGGCACAUGAGGAUCACCCAUGUAGUAU [Mat - Exclusion 4 - Mod of JL - D22] (puzzle: Exclusion 4)
Response: 21.6

Request: Give the reported apparent KD of MS2 coat protein for this sequence. CUGGUCCGAGGAUAUUUUAUGUGAUACAUGAGGAUCACCCAUGUUAUAUGAUGGAUGUUAAAAGAAGGCGGACUAG [Mat - Exclusion 5 - JL mod - D80] (puzzle: Exclusion 5)
Response: 102

Request: Give the reported apparent KD of MS2 coat protein for this sequence. GCCGAUUAAGUGAGGAUAUACCUAUGGAUACAUAGGUAGAAGGCACAUGAGGAUCACCCAUGUUCCUCAACGGC [Fiskers BMX 4 - 6] (puzzle: Brourd's mod of Exclusion 4)
Response: 15

Request: Give the reported apparent KD of MS2 coat protein for this sequence. UUUUAACAUGAGGAUCACCCAUGUCAGGAUAUGGUUUUUUUUUUUUUUUUUUUUUUUUCCAGAAGGGACAUUUU [My solution] (puzzle: Exclusion 1)
Response: 5.77

Request: Give the reported apparent KD of MS2 coat protein for this sequence. GUUAAGUGAGGAUAUGGUGAGUAGUGCCUGAGCGCUGCUCACCAGAAGGCACAUGAGGAUCACCCAUGUAUAGC [JL-ex4-2.06 denovo] (puzzle: Exclusion 4)
Response: 15.2

---

Tested on: K4 kissing-loop RNA reporter;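 further: bound reporter read as fluorescence of individual clusters on recovered sequencing chips by microscopy, with normalized cluster intensities fitted with a binding model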
EXPERIMENT NOTES: apparent KD of K4 kissing-loop reporter; higher = weaker reporter binding
TEST SETTINGS: Eterna round: R107; input ligand: tryptophan 2.4 mM
Each record gets a class by apparent KD of K4 kissing-loop reporter: bottom range = under 100 nM, center range = from 100 nM up to 200 nM, top range = 200 nM and over

UUGGCAGUGAUGUUGCCAGAGCUCACCGAAGGAGCGCGUGAAAACGCAGGUAGGUCGCGGUAGCGGAGUGAUUCUCCGCGAGGGC [Same State Arginine A GF 21] : bottom range
GUCCACACUGCAGGAUAUGGAGGAAUAGCGAGGGAGUGUGGAAGCACACCUCUGGCAGUGAUGUUGCCAGAAGGGCGGUGCGGCG [Cemaorar] : bottom range
UGAUUUAACUGAAGGAGCGGCAAUUGAUAAGUAAAUAUAGUGAUGUUAUAUAAGAUAGAGAGCCAGGUAGGUCGCAGAGGGAGGA [ExArgB.J] : center range
CGGUAGUCUAUAGGGUCCAGUGAUGUUGGACAGGAUAUGCUACGCCGCAGAAGGGUCCAACUGGUUGUGAAGUUGGCUACUAGGC [Somaaxe] : center range
GAUUCAGUGAUGUUGGAAGGCGAGCGGGAUACCAGCCGAGACUCAGGCCCUUGGCAGCCCACAUAUCCCAGGUAGAUAGUCGCUC [Same State - Theophylline A (Freestyle 10)] : top range
UGUACCGAGGCAGGAUAUGUCGUCGAAAGACGAAAUGGAGUGAUGUUCCUUAAACUGCGAAAGCAGACAGAAGGGUCUUGGUACU [FmnBS 29 G10+U76] : center range
CGAAAUAGAACGGCCGCCACUGUAAGUCCUGACAGUAAGUGAUGUUUGAAAGAUUCGGGUAUUCGCAGGACCGGGUUCGUCAUAA [theeternabot_sameState_KL_Trp_B_13] : top range
GGGAAGAAGGCGGCCGCCACUGCAGAAGAGACAGAGAGGGUAGAAGAGGAGUGAUGUUCCAAGAACAGGACCGGGCCAAGAAGGG [whbob_SS_Tryp_B_t30] : center range

Request: # bin label for UGCAGUGAUGUUGCUAUUUGUCUUGAUUAACGAGGACCGGUACGGCCGCCACUCGAUUUCUCUCUAAUCGAGUAUGUUGUUUAGU [#19 K4 Tryptophan A Exclusion]
Response: center range

Request: # bin label for UAGUCCUAGUGAUGGUCAUCACGUGGCGGGCGAGGACCGGUACGGCCGCCACUCGACUUUGCAGUGAUGUUGCAAACCGGACAAU [Exclusion - Tryptophan A (Freestyle 20)]
Response: center range

Request: # bin label for GUAUCAGUGAUGUUGAUAGGCGAGCGGGAUACCAGCCAAGACUCAGGCCCUUGGCAGCCCACAUAUCCCACGUAGAUAGUAGCUC [Same State - Theophylline A (Freestyle 16)]
Response: center range
